# ASSAYED SYSTEM: Serine/threonine-protein kinase mTOR (Homo sapiens)
# ASSAY COMMENT: Inhibition of recombinant mTOR (unknown origin) using GST-p70S6 as substrate after 60 mins by TR-FRET analysis
MEASURED METRIC: IC50 (nM)

>>> reported_result("CC(C)(O)c1ccc(-c2cnc3[nH]c(=O)n(CCC4CCOCC4)c3n2)cn1")
64

* * *

# ASSAY COMMENT: Clearance in rat at 2 mg/kg, iv
# Type: ADME, organism-based
# SETUP CONDITIONS: in vivo
MEASURED METRIC: clearance (mL/min/kg)

>>> reported_result("CO[C@H]1CC[C@H](N2CC(=O)Nc3ncc(-c4ccc(C(C)(C)O)nc4)nc32)CC1")
1.7
>>> reported_result("O=c1[nH]c2ncc(-c3ccc(-c4nc[nH]n4)cc3)nc2n1CCC1CCOCC1")
32
>>> reported_result("CC(C)(O)c1ccc(-c2cnc3c(n2)N(CCC2CCOCC2)C(=O)CN3)cn1")
9
>>> reported_result("CC(C)(O)c1ccc(-c2cnc3[nH]c(=O)n(CCC4CCOCC4)c3n2)cn1")
15
>>> reported_result("O=C1CN(CCC2CCOCC2)c2nc(-c3ccc(-c4nc[nH]n4)cc3)cnc2N1")
13.8
>>> reported_result("CC(C)(O)c1ccc(-c2cnc3c(n2)N(CCC2CCOCC2)CC(=O)N3)cn1")
23
>>> reported_result("CO[C@H]1CC[C@H](N2C(=O)CNc3ncc(-c4ccc(C(C)(C)O)nc4)nc32)CC1")
4.9
